# system_tested: HIV-1 RT R448A, RNase H function (Human immunodeficiency virus type 1 group M subtype B, UniProt P04585, R1035A)
# Construct: introduce amino acid substitutions into the p66 HIV-1 RT subunit coded in a p6HRT- prot plasmid; His6
# method_description: RNase H inhibition on mutated RT R448A
assay_readout: pIC50
Give bare numbers, as −log10 of the molar value.

Entry CC1CC=C2C(CO)=CCCC2C12CC(c1ccoc1)OC2=O (stereo not shown) : reported pIC50 = ?
4.30

###

For each entry below, report its IC50 value.
# system_tested: HIV-1 RT-associated RNase H function (Human immunodeficiency virus type 1 group M subtype B)
# Construct: The 1:1 ration between the p66/p51 subunits was also verified; His6
# method_description: HIV-1 DNA polymerase-independent RNase H activity determination (wt RT)
# condition_parameters: wt RT; concentration required to reduce the enzyme activity by 50%; read-out: RnaseH IC50
Give bare numbers, in µM.

{"molecule": "CC1CCC2=C(C=O)CCCC2C12CC(c1ccoc1)OC2=O (stereo not drawn)", "IC50 [µM]": 36.4}
{"molecule": "COc1cc2oc(-c3ccc(O)cc3)cc(=O)c2c(O)c1OC", "IC50 [µM]": 89}
{"molecule": "COc1cc2oc(-c3ccc(O)c(O)c3)cc(=O)c2c(O)c1OC", "IC50 [µM]": 8.2}
{"molecule": "CC(=O)OCC1=CCCC2C1=CCC(C)C21CC(c2ccoc2)OC1=O (stereo not drawn)", "IC50 [µM]": 20.2}
{"molecule": "CC1CC=C2C(CO)=CCCC2C12CC(c1ccoc1)OC2=O (stereo not drawn)", "IC50 [µM]": 9.1}

Could you now consider this next molecule?
If you can, please state the reported IC50 value of CC1=C2CCC(C)C3(CC(c4ccoc4)OC3=O)C2CCC1=O (stereo not drawn) .
52.4

###

# system_tested: HIV-1 RT A508V, RNase H function (Human immunodeficiency virus type 1 group M subtype B, UniProt P04585, A1095V)
# Construct: introduce amino acid substitutions into the p66 HIV-1 RT subunit coded in a p6HRT- prot plasmid; His6
# method_description: RNase H inhibition on mutated RT A508V
pIC50: −log10 of the molar value.
assay_readout: pIC50

What does the record list as pIC50 for CC1CC=C2C(CO)=CCCC2C12CC(c1ccoc1)OC2=O (stereo not shown) ?
< 4.00

###

# system_tested: HIV-1 RT A502F, RNase H function (Human immunodeficiency virus type 1 group M subtype B, UniProt P04585, A1089F)
# Construct: introduce amino acid substitutions into the p66 HIV-1 RT subunit coded in a p6HRT- prot plasmid; His6
# method_description: RNase H inhibition on mutated RT A502F
assay_readout: IC50 (µM)
Numbers only, in µM.

Which value of IC50 has been reported for CC1CC=C2C(CO)=CCCC2C12CC(c1ccoc1)OC2=O (stereo not shown) in the records?
32.8

###

# system_tested: HIV-1 RT R557A, RNase H function (Human immunodeficiency virus type 1 group M subtype B, UniProt P04585, R1144A)
# Construct: introduce amino acid substitutions into the p66 HIV-1 RT subunit coded in a p6HRT- prot plasmid; His6
# method_description: RNase H inhibition on mutated RT R557A
# Method: HIV RT-associated RNase H activity was measured as described[36] using the RNase H inhibitor RDS1759[11] as a control. […] The reaction mixture was incubated for 1 h at 37 °C, stopped by addition of EDTA and products were measured with a multilabel counter plate reader Victor 3 (Perkin Elmer model 1420–051) equipped with filters for 490/528 nm (excitation/emission wavelength). […]
assay_readout: IC50 (µM)
Numbers only, in µM.

Would you kindly share the measured IC50 for CC1CC=C2C(CO)=CCCC2C12CC(c1ccoc1)OC2=O (stereo not shown) ?
59.2

###

# system_tested: HIV-1 RT-associated RNase H function (Human immunodeficiency virus type 1 group M subtype B, UniProt P04585)
# Construct: The 1:1 ration between the p66/p51 subunits was also verified; His6
# method_description: HIV-1 DNA polymerase-independent RNase H activity determination (wt RT)
# condition_parameters: wt RT; concentration required to reduce the enzyme activity by 50%; read-out: RnaseH IC50
# Method: HIV-1 RT group M subtype B. Heterodimeric RT was expressed essentially as previously described. Briefly, E. coli strain M15 containing the p6HRT-prot vector was grown to an optical density at 600 nm of 0.7 and induced with 1.7 mM isopropyl β-D-1-thiogalactopyranoside (IPTG) for 4 h. […] Catalytic activities and protein concentrations were determined. […] HIV RT-associated RNase H activity was measured as described[36] using the RNase H inhibitor RDS1759[11] as a control. […]
assay_readout: IC50

{"compound": "CC(=O)OCC1=C2C(COC3OC(CO)C(O)C(O)C3OC(C)=O)CC(C)C3(CC(c4ccoc4)OC3=O)C2CCC1 (stereo not drawn) [Compound 5, teuflavoside]", "IC50": "> 100 µM"}

Return reported IC50 values for all items listed beneath this line.
1. COc1ccc(-c2cc(=O)c3c(O)c(OC)c(OC)cc3o2)cc1
2. CC(=O)OCC12C(O)CC(C)C3(CC(c4ccoc4)OC3=O)C1CCC(=O)C21CO1 (stereo not drawn)

1. > 100 µM
2. > 100 µM
